# study system: T1, glucose-dependent insulinotropic peptide (gastric inhibitory polypeptide) receptor (human, UniProt P48546 22-466)
# T1 sequence (looked up): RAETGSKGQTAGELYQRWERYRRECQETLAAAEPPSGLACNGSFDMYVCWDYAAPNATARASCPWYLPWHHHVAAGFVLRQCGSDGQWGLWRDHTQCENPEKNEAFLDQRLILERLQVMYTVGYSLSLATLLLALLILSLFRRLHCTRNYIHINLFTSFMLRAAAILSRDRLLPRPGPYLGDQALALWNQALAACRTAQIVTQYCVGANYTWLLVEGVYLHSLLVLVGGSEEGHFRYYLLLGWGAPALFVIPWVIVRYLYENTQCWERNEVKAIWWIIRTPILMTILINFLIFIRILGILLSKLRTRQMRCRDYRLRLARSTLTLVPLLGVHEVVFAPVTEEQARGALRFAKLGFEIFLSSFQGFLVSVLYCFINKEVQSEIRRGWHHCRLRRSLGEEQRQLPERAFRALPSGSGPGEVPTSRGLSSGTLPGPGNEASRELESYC
# test method notes: cell-based or functional assay
Starred links: 1 amine or outer side, 2 acyl side, 3 side chain; linkers in the order of their positions; H or OH if unused. Non-standard residues stand in square brackets, D forms with d. Groups on a side chain read outwards from the residue. Primed or numbered codes have the meaning given here. No end group written: not given here. *: point of attachment. γGlu = O=C(O)[C@H](CCC(=O)[*:2])N[*:1]; Stearoyl = CCCCCCCCCCCCCCCCCC(=O)*; αMeF = C[C@](N)(Cc1ccccc1)C(=O)O; αMeK = C[C@](N)(CCCCN)C(=O)O; αMeS = C[C@](N)(CO)C(=O)O; PEG2′ = not defined here; Aib = CC(C)(N)C(=O)O
parameter measured: Primary assay EC50 (cAMP), n2 (nM)

binder="H[Aib]EGS[αMeF]TSDV[αMeS]S[αMeF]LEGEAAK([PEG2′-PEG2′-PEG2′-Stearoyl])EFIA[αMeF]VV[αMeK]GG-NH2 [SEQ ID NO 54]" parameter_measured="Primary assay EC50 (cAMP), n2" readout_units=nM recorded_number=26
binder="H[Aib]EGS[αMeF]TSDVSS[αMeF]LEGEAAK([PEG2′-PEG2′-γGlu-Stearoyl])E[αMeF]IA[αMeF]VVKGG-NH2 [SEQ ID NO 40]" parameter_measured="Primary assay EC50 (cAMP), n2" readout_units=nM recorded_number=26
binder="H[Aib]EGS[αMeF]TSDVSS[αMeF]LEGEAAKE[αMeF]IA[αMeF]VVKGGK([PEG2′-PEG2′-γGlu-Stearoyl])-NH2 [SEQ ID NO 38]" parameter_measured="Primary assay EC50 (cAMP), n2" readout_units=nM recorded_number=25
binder="H[Aib]EGS[αMeF]TSDVSK([PEG2′-PEG2′-γGlu-Stearoyl])YLEGEAA[Aib]E[αMeF]IA[αMeF]VVEGG-NH2 [SEQ ID NO 59]" parameter_measured="Primary assay EC50 (cAMP), n2" readout_units=nM recorded_number=25.6
binder="H[Aib]EGS[αMeF]TSDV[αMeS]S[αMeF]LEGEAAAEFIK([PEG2′-PEG2′-γGlu-Stearoyl])WVVEGG-NH2 [SEQ ID NO 69]" parameter_measured="Primary assay EC50 (cAMP), n2" readout_units=nM recorded_number=25.5
binder="H[Aib]EGS[αMeF]TSDV[αMeS]S[αMeF]LEGEAAEEFIK([PEG2′-PEG2′-γGlu-Stearoyl])WVVEGG-NH2 [SEQ ID NO 66]" parameter_measured="Primary assay EC50 (cAMP), n2" readout_units=nM recorded_number=25.1
binder="H[Aib]EGS[αMeF]TSDV[αMeS]S[αMeF]LEGEAAK([PEG2′-PEG2′-PEG2′-Stearoyl])E[αMeF]IAWVV[αMeK]GG-NH2 [SEQ ID NO 55]" parameter_measured="Primary assay EC50 (cAMP), n2" readout_units=nM recorded_number=25
binder="H[Aib]EGS[αMeF]TSDV[αMeS]SYLEGEAAK([PEG2′-PEG2′-γGlu-Stearoyl])E[αMeF]IA[αMeF]VV[αMeK]GG-NH2 [SEQ ID NO 47]" parameter_measured="Primary assay EC50 (cAMP), n2" readout_units=nM recorded_number=25
binder="H[Aib]EGS[αMeF]TSDVSK([PEG2′-PEG2′-γGlu-Stearoyl])YLEGEAAEE[αMeF]IA[αMeF]VVEGG-NH2 [SEQ ID NO 58]" parameter_measured="Primary assay EC50 (cAMP), n2" readout_units=nM recorded_number=25

Sourced from patent US20200079833A1
